Each entry below lists one item and its recorded EC50 value.
# System Under Test: T1, human TSLPR (on cells) (human, UniProt Q9HC73 23-371)
# T1 construct: In FACS and proliferation assays it was on BA/F3 cells stably overexpressing human TSLPR together with IL-7Rα; also called BA/F3-TSLPR/IL7Rα; thymic stromal lymphopoietin receptor
# T1 sequence: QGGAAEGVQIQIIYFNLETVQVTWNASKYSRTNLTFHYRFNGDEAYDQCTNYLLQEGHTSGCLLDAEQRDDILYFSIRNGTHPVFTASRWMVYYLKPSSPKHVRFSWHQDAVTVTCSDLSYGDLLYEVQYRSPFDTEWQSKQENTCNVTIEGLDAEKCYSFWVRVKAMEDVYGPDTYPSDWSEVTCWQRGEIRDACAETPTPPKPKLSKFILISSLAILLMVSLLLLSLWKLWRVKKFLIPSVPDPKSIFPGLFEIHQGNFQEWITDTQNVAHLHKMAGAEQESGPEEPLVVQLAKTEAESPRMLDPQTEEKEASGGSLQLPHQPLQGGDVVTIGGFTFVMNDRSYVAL
# Assay Text: FACS on BA/F3 cells stably overexpressing human TSLPR and IL-7Rα
Write it as a number; the unit µg/mL goes unstated.

TSLPR-012_141, CDR grafted (antibody, V domains shown, Humanized (CDR grafted) variant of hamster TSLPR-012; human kappa and human IgG1 or IgG4(S228P,L235E) appear only as embodiments) VH: QVQLVESGGGLVKPGGSLRLSCAASGFSITTSGYYWTWIRQFPGKGLEWMGYIGYNSKTYYNPALKSRITISRDNAKNSLYLQMNSLRAEDTAVYYCARSLYGGYKDAFDSWGQGTLVTVSS VL: DIQMTQSPSSLSASVGDRVTITCRASQSIGTSLHWYQQKPGKAPKLLIKFASRLQSGVPSRFSGSGSGTDFTLTISSLQPEDFATYYCQQSPGFPPTFGQGTKLEIKR | 0.0133
TSLPR-012_75, CDR grafted (antibody, V domains shown, Humanized (CDR grafted) variant of hamster TSLPR-012; human kappa and human IgG1 or IgG4(S228P,L235E) appear only as embodiments) VH: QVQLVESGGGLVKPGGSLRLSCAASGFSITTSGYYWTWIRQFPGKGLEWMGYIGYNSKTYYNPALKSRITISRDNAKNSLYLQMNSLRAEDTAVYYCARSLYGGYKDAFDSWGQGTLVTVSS VL: EIVLTQSPDFQSVTPKEKVTITCRASQSIGTSLHWYQQKPDQSPKLLIKFASRSISGVPSRFSGSGSGTDFTLTINSLEAEDAATYYCQQSPGFPPTFGQGTKLEIKR | 0.0157
TSLPR-012 (hamster) (antibody, V domains shown, Parent Armenian hamster monoclonal antibody; the hamster constant regions are not; also called TSLP-012; hamster antibody TSLPR-012) VH: QIQLQESGPGLVKPSQSLSLTCSVTGFSITTSGYYWTWIRQFPGKKLEWMGYIGYNSKTYYNPSLKSRISITRDTSKNQFLLHLNSVTTEDTATYYCARSLYGGYKDAFDSWGQGTLVTVSS VL: DVVLTQTPATLSAIPGERVTMTCKASQSIGTSLHWYQHRPNETPRLLIKFASRSITGIPSRFSGSGSGTDFTLGINNLEAEDFAIYYCQQSPGFPPTFGSGTKLEINR | 0.0156

Ask: Quick one: EC50 of TSLPR-012_189, CDR grafted (antibody, V domains shown, Humanized (CDR grafted) variant of hamster TSLPR-012; human kappa and human IgG1 or IgG4(S228P,L235E) appear only as embodiments) VH: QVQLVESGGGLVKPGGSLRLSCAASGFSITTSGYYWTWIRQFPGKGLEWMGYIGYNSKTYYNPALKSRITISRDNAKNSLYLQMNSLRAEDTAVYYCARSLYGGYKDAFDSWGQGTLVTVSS VL: EIVMTQSPATLSVSPGERATLSCRASQSIGTSLHWYQQKPGQAPRLLIKFASRSITGIPARFSGSGSGTEFTLTISSLQSEDFAVYYCQQSPGFPPTFGQGTKLEIKR ?
Reply: 0.0149
